# System: LNCaP cells
# measurement-protocol: MTT colorimetric anti-proliferative assay
# Assay type: cell-based, human
# applied-conditions: relative to lead compound 5 (or parent 32)
I'd appreciate it if you could supply fold loss/reduction in anti-proliferative activity values for the items below.
Answers are plain numbers, in fold.

molecular-string | units-of-measure | value-measured
C[C@]12CC[C@H](O)CC1=CC[C@@H]1[C@@H]2CC[C@]2(C)C(n3cnc4c(Cl)ncnc43)=CC[C@@H]12 | fold | 4

As a next step, examine the compound that follows.
Fill in: fold loss/reduction in anti-proliferative activity on LNCaP cells, entry C[C@]12CC[C@H](O)CC1=CC[C@@H]1[C@@H]2CC[C@]2(C)C(n3c(Cl)nc4ccccc43)=CC[C@@H]12 3

* * *

# target-or-system: AR (Homo sapiens, UniProt P10275, T878A)
# Construct: host or cells: LNCaP
# Sequence (P10275 whole entry T878A): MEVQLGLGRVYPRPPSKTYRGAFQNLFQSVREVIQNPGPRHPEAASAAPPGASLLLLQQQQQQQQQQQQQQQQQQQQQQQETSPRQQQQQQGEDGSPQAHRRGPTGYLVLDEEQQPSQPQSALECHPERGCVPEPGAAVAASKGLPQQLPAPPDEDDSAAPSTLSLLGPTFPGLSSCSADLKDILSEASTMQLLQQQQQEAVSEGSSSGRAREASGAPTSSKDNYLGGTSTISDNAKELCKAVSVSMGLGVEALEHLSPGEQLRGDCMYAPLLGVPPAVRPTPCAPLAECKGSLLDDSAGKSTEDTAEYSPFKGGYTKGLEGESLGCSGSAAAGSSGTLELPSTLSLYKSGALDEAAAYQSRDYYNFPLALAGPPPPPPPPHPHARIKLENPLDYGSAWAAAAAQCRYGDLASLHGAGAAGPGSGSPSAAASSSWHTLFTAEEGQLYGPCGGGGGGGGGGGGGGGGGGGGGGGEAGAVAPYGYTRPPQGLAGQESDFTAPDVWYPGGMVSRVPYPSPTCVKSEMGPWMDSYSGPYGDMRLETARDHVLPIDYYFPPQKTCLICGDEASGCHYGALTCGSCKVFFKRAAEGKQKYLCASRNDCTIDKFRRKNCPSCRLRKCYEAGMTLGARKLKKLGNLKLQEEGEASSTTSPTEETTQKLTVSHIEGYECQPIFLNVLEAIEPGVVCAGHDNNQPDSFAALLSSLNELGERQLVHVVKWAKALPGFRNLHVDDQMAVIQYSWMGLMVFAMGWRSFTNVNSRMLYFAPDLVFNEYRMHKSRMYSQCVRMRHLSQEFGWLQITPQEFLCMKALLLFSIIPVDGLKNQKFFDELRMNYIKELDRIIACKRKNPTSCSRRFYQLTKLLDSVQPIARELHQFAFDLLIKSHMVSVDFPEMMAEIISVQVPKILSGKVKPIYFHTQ
# measurement-protocol: AR down-regulation, western blot analysis in LNCaP cells
# Assay type: cell-based
# applied-conditions: 24 h, western blot
property-measured: AR down-regulation (ARD) activity, in words

compound | value-measured
CC(C)CCNCC1=C(n2cnc3ccccc32)[C@@]2(C)CC[C@H]3[C@@H](CC=C4C[C@@H](O)CC[C@@]43C)[C@@H]2C1 [Compound 25] | significant loss of ARD
C[C@]12CC[C@H](O)CC1=CC[C@@H]1[C@@H]2CC[C@]2(C)C(n3cnc4ccccc43)=C(CNc3ccccc3)C[C@@H]12 [Compound 28] | significant loss of ARD
COc1ccc(NCC2=C(n3cnc4ccccc43)[C@@]3(C)CC[C@H]4[C@@H](CC=C5C[C@@H](O)CC[C@@]54C)[C@@H]3C2)cc1OC [Compound 31] | significant loss of ARD

* * *

property-measured: melting point

Report melting point for every entry below.
1. Cc1ccc(S(=O)(=O)O[C@H]2CC[C@@]3(C)C(=CC[C@@H]4[C@@H]3CC[C@]3(C)C(n5cnc6ccccc65)=CC[C@@H]43)C2)cc1
2. CC(C)CCNCC1=C(n2cnc3ccccc32)[C@@]2(C)CC[C@H]3[C@@H](CC=C4C[C@@H](O)CC[C@@]43C)[C@@H]2C1
3. C[C@]12CC[C@H](O)CC1=CC[C@@H]1[C@@H]2CC[C@]2(C)C(n3c(Cl)nc4ccccc43)=CC[C@@H]12

["139 to 141 °C", "111 to 113 °C", "83 to 86 °C"]

* * *

I'd appreciate it if you could supply GI50 values for the items below.
# Tested on: LNCaP cells
# measurement-protocol: MTT colorimetric anti-proliferative assay
# Format: cell-based, human
# applied-conditions: Homo sapiens, LNCaP, 168 h, LNCaP, MTT, 7 days; Table 2; read-out: GI50 of C-17 modified compounds
One number for each entry, in µM.

compound | GI50, µM
C[C@]12CC[C@H](O)CC1=CC[C@@H]1[C@@H]2CC[C@]2(C)C(n3cnc4cc5ccccc5cc43)=CC[C@@H]12 [Compound 20] | 19.1
C[C@]12CC[C@H](O)CC1=CC[C@@H]1[C@@H]2CC[C@]2(C)C(n3cnc4ccccc43)=CC[C@@H]12 [Compound 5, reference compound] | 3.35
C[C@]12CC[C@H](O)CC1=CC[C@@H]1[C@@H]2CC[C@]2(C)C(n3c(Cl)nc4ccccc43)=CC[C@@H]12 [Compound 22] | 10.1

As a next step, examine the compound that follows.
Fill in: GI50 on LNCaP cells, entry Cc1cc2ncn(C3=CC[C@H]4[C@@H]5CC=C6C[C@@H](O)CC[C@]6(C)[C@H]5CC[C@]34C)c2cc1C [Compound 17] 42.7
